target: human IL-23R (Homo sapiens); construct: UniProtKB—Q5VWK5, amino acids 22-629; secretion signal of the plasmid (Promega N1371); expressed in transfected cells; test: Binding assay (NanoBRET displacement of fluorophore-labelled reference compound) for estimating binding affinity to human IL-23R
Sequence (Q5VWK5 22-629): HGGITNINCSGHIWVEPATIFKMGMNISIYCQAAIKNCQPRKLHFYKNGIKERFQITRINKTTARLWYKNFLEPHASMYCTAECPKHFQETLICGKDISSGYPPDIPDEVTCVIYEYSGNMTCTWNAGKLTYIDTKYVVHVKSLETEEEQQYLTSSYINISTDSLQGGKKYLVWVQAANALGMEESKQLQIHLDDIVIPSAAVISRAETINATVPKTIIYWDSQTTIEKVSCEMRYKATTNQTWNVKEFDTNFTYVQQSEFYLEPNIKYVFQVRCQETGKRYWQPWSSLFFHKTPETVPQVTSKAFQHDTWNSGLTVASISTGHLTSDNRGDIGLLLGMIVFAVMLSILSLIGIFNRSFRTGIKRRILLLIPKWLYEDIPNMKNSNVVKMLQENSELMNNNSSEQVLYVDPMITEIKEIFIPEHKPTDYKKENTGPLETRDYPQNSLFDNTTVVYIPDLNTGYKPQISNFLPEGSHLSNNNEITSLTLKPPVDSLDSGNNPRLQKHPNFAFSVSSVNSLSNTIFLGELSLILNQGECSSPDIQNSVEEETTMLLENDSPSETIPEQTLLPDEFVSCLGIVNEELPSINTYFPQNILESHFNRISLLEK
*1 amine or outer side, *2 acyl side, *3 side chain or, on linkers, in order; H or OH if unused. Where a SMILES comes first, the peptide text is derived from it. Bridges are numbered along the chain shown (N, C = ends). [ ]: non-standard residue; d: D form. αMeL = CC(C)C[C@](C)(N)C(=O)O; CH2COCH2 = O=C(C[*:1])C[*:2]
Quantity measured: Ki

Compound | Result
CC(C)C[C@@H]1NC(=O)[C@H](Cc2c[nH]c3ccccc23)NC(=O)[C@H](Cc2c[nH]c3ccccc23)NC(=O)[C@@H]2CSSC[C@H](NC(=O)[C@H](CO)NC(=O)[C@@H](NC(=O)[C@@H](N)CC(=O)O)CSSC[C@@H](C(=O)N[C@@H](CCCNC(=N)N)C(N)=O)NC1=O)C(=O)N[C@@H](Cc1c[nH]c3ccccc13)C(=O)N[C@@H](CCC(N)=O)C(=O)N2 [Ref 1, H-DC(1b)SC(2b)WQC(2b)WWLC(1b)R-[NH2], reference compound] | > 1000 nM

In the following, a different compound is considered.
*Q* Dear colleague, I am looking for the recorded Ki of the following compound: CC(=O)N[C@@H](CC(=O)O)C(=O)N[C@H]1CSCC(=O)CSC[C@@H](C(=O)N[C@@H](CCC(=O)O)C(=O)N[C@@H](CC(N)=O)C(=O)NCC(N)=O)NC(=O)[C@](C)(CC(C)C)NC(=O)[C@H](Cc2c[nH]c3ccccc23)NC(=O)[C@H](Cc2c[nH]c3ccccc23)NC(=O)[C@@H]2CSCC(=O)CSC[C@H](NC(=O)[C@H](CCC(N)=O)NC1=O)C(=O)N[C@@H](Cc1c[nH]c3ccccc13)C(=O)N[C@@H](CCC(N)=O)C(=O)N2 [Compound 64] (Ac-DCQCWQCWW[αMeL]CENG-NH2; linker 2-11, 4-7 via CH2COCH2)
*A* > 1000 nM

Every entry's value here was drawn from patent US20250154198A1.
